// growth lookup, one value per entry
Tested on: UACC-62 melanoma
Experiment: NCI-60 one-dose screen, 48 h (100 = growth as untreated, 0 = no growth, -100 = all killed)
Conditions: 10 µM unless noted
Experimental: Growth inhibition of the UACC-62 human tumor cell line is measured as a screen for anti-cancer activity. Cells are grown in 96 well plates and exposed to the test compound for 48 hours. Compounds are tested at a single concentration, which is 10^-5 M for most compounds. The reported endpoint is percent growth (GI% or GIPRCNT), where numbers from 0 - 100% represent growth inhibition, and numbers from -100% - 0 represent cell death. For example, a value of 40 represents 60% growth inhibition. […]
The panel holds about 83,000 compounds, 20% with a hit somewhere; the sample as a whole holds those more often.
Express it in %; write the number only.

Field growth (entry O=C(NN1C(=O)CSC1c1cccc([N+](=O)[O-])c1)c1ccc(NC(=O)c2ccccn2)cc1 (stereo not given) ) reads 96

====

Tested on: UACC-62 melanoma
Assay: NCI-60 one-dose screen, 48 h
Conditions: 10 µM unless noted
Compounds without any hit were thinned out: in the full panel of roughly 83,000, 20% have a hit. Active and inactive are the calls of the source. Rule for the calls: active = growth percent below 10; inactive = the rest.
The reply should be one of these categories: 1 (yes) (active), 0 (no) (inactive)

Check out these entries, answers already filled in.
c1ccc(-c2nc3ccccc3[nH]2)c(OCCCCCOc2ccccc2-c2nc3ccccc3[nH]2)c1: 0 (no)
Nc1nc(N(Cc2ccccc2)c2ccccc2)c2cn[nH]c2n1: 0 (no)
CC(=O)O[C@H]1CC[C@]2(C)[C@H]3CC=C4[C@@H]5CC(C)(C)CC[C@]5(C(=O)N5CCN(CCC#N)CC5)CC[C@@]4(C)[C@]3(C)CC[C@H]2C1(C)C: 0 (no)
CC/C(=C(/c1ccc(O)cc1)c1ccc(OCCN2CCCCC2)cc1)c1ccc(OC)cc1: 0 (no)

Hi, sorry to bother you, what did the test record for C#Cc1cccc(NC(=O)C2CCCCN2C(=O)CCl)c1 (centres undefined) ?
1 (yes)

Hi, sorry to bother you, what did the test record for COCCOC(C)C(/C=N/NC(N)=S)=N/NC(N)=S (centres undefined) ?
0 (no)

Hi, sorry to bother you, what did the test record for Cc1ccc2nc(-c3ccc(C(=O)N/N=C/c4ccc([N+](=O)[O-])cc4)cc3)[nH]c2c1 ?
0 (no)

Hi, sorry to bother you, what did the test record for O=C(Cc1ccc(/C=C/C(=O)c2ncc[nH]2)cc1)Nc1cc(F)c(F)c(F)c1 ?
0 (no)

Hi, sorry to bother you, what did the test record for C/C(Cc1ccc(Cl)cc1)=C(\c1ccc(OCCN2CCCCCC2)cc1)c1ccc(OC(=O)c2ccccc2)cc1 ?
1 (yes)

====

Test system: ACHN renal
Experiment: NCI-60 one-dose screen, 48 h (100 = growth as untreated, 0 = no growth, -100 = all killed)
Conditions: 10 µM unless noted
About 83,000 compounds went through this panel and 20% of them were active in at least one assay; those are over-represented in the sample as a whole.
Could you mark each record True if its growth falls strictly under 50%, and False if it equals or exceeds it?

Check out these entries, answers already filled in.
CC(=O)N1N=C(c2ccc(Nc3nc(Nc4ccc(F)cc4)nc(Nc4ccc(F)cc4)n3)cc2)CC1c1ccc(N(C)C)cc1 (centres undefined): False
CN(C)Cc1ccc(NC(=O)c2cncc(C#Cc3cnc(N)c4ncccc34)c2)cc1C(F)(F)F: True

Record COc1ccc(C/C(C)=C(\c2ccc(Cl)cc2)c2ccc(OCCCN(C)C)cc2)cc1 : is its growth strictly below 50%?
False

Record CN(C)c1ccc(/C=N\NC(=O)c2ccc3nc(-c4ccc(Cl)cc4)[nH]c3c2)cc1 : is its growth strictly below 50%?
True

Record CNC(=O)c1cc(Oc2ccc3c(c2)sc2nc(-c4ccc(Cl)c(C(F)(F)F)c4)cn23)ccn1 : is its growth strictly below 50%?
False

Record Cc1cccc(-c2nc(C(C)C)sc2-c2ccnc(NCCCNS(=O)(=O)c3ccc(Cl)cc3)c2)c1 : is its growth strictly below 50%?
False

Record Cc1ccc(C)c2c1sc1nc(N3CCOCC3)c(C#N)c(=O)n12 : is its growth strictly below 50%?
False
